Reference source for all entries: patent US10494355B2

target: human recombinant HDAC1 (Homo sapiens, UniProt Q13547); assay: HDAC1 enzyme activity inhibition assay (HDAC Fluorimetric Drug Discovery Kit); conditions: human recombinant HDAC1, 10 μM substrate, 30° C. 60 minutes
Sequence (Q13547 whole entry): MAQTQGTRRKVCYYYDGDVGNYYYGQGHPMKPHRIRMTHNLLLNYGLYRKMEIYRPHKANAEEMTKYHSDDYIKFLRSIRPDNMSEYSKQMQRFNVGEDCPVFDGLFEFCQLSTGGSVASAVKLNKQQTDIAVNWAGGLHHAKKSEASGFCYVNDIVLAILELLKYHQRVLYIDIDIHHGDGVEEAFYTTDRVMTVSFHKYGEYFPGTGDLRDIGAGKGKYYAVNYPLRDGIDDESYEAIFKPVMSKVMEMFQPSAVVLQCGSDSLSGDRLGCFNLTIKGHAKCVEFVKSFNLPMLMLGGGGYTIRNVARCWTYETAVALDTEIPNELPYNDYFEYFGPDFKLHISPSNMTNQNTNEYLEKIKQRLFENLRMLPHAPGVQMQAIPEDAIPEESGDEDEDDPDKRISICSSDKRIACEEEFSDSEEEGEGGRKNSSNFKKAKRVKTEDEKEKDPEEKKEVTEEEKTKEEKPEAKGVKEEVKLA
pIC50: −log10 of the molar value.
MEASURED_PROPERTY: pIC50

-- ask GET pIC50 | system: human recombinant HDAC1 (Homo sapiens, UniProt Q13547) | item: FC(F)c1nnc(-c2cnc(NC3(c4ccccc4Cl)CCC3)nc2)o1 [Compound 1614]
-- reply < 5.00

-- ask GET pIC50 | system: human recombinant HDAC1 (Homo sapiens, UniProt Q13547) | item: COc1ccccc1C1(Nc2ncc(-c3nnc(C(F)F)o3)cn2)CC1 [Compound 2047]
-- reply < 5.00

-- ask GET pIC50 | system: human recombinant HDAC1 (Homo sapiens, UniProt Q13547) | item: Cc1ccc(S(=O)(=O)CC2(Nc3ncc(-c4nnc(C(F)F)o4)cn3)CCC2)cc1 [Compound 2026]
-- reply < 5.00

-- ask GET pIC50 | system: human recombinant HDAC1 (Homo sapiens, UniProt Q13547) | item: FC(F)c1nnc(-c2cnc(NC3(c4ccccc4)CCNCC3)nc2)o1 [Compound 1678]
-- reply < 5.00

-- ask GET pIC50 | system: human recombinant HDAC1 (Homo sapiens, UniProt Q13547) | item: Fc1c(Cl)cccc1C1(Nc2ncc(-c3nnc(C(F)(F)F)o3)cn2)CCC1 [Compound 1966]
-- reply < 5.00
